Each entry below carries its recorded TGI.
Tested on: M14 melanoma
Test: NCI tumour cell line growth inhibition, 48 h

Field: example entries. Status: answers known.
>  <SMILES_INPUT>
COC(=O)[C@]12CCC(C)(C)C[C@H]1[C@H]1C(=O)C=C3[C@@]4(C)C=C(C#N)C(=O)C(C)(C)[C@@H]4CC[C@@]3(C)[C@]1(C)CC2

>  <TGI>
0.0876 µM

$$$$
>  <SMILES_INPUT>
CC(C)N(CCn1c2c3ccccc3ccc2c2oc(=O)c3ccccc3c21)C(C)C

>  <TGI>
> 100 µM

$$$$
>  <SMILES_INPUT>
CCn1sc2ccccc2c1=O

>  <TGI>
12 µM

$$$$

Continue with the next compound.
Using the record for Cc1nc([N+](=O)[O-])cn1CC(=N)N , report its TGI.
> 100 µM

====

Each entry below carries its recorded TGI.
Tested on: HT29 colon
Assay: NCI tumour cell line growth inhibition, 48 h

>  <COMPOUND>
COc1ccc(O)c(C(=O)c2ccc(C(=O)N[C@H]3CCCNC[C@@H]3NC(=O)c3ccncc3)cc2)c1F

>  <READOUT_TYPE>
TGI

>  <OBSERVED_VALUE>
> 25 µM

$$$$
>  <COMPOUND>
COc1cc2c(OC)cc1CSCc1sc(C)c(c1Br)CSC2

>  <READOUT_TYPE>
TGI

>  <OBSERVED_VALUE>
> 100 µM

$$$$
>  <COMPOUND>
CCCN1CN(C(C(=O)N[C@@H]2C(=O)N3C2SC(C)(C)C3C(=O)O)c2ccc(O)cc2)CSC1=S (some centres undefined)

>  <READOUT_TYPE>
TGI

>  <OBSERVED_VALUE>
> 100 µM

$$$$

Using the record for CC(=O)O[C@H]1CCC2[C@@H]3CCC4Nc5oncc5C[C@]4(C)C3CC[C@@]21C (some centres undefined) , report its TGI.
> 10 µM

====

Test system: HL-60(TB) leukemia
Test: NCI tumour cell line growth inhibition, 48 h
READOUT_TYPE: TGI

Using the record for Cc1nn(C(=O)c2ccc(Cl)cc2)c2c1C(/C=C/c1ccccc1)SC(N)=N2 (stereo unspecified) , report its TGI.
> 10 µM

Using the record for CC1(C)CC(=O)C(C=NC(=O)c2ccncc2)=C(O)C1 , report its TGI.
> 100 µM

Using the record for COc1cccc2cc(C(=O)O)c(=O)oc12 , report its TGI.
> 100 µM

====

Tested on: U251 CNS
Assay: NCI tumour cell line growth inhibition, 48 h
READOUT_TYPE: TGI

Field: example entries. Status: answers known.
>  <COMPOUND>
O=Cc1ccc2c(c1-c1c(C=O)ccc3c1OCO3)OCO2

>  <READOUT_TYPE>
TGI

>  <OBSERVED_VALUE>
> 100 µM

$$$$
>  <COMPOUND>
CNS(=O)(=O)NNS(=O)(=O)c1ccc(Br)cc1

>  <READOUT_TYPE>
TGI

>  <OBSERVED_VALUE>
> 100 µM

$$$$

Continue with the next compound.
Using the record for c1ccc2nc3c(nc2c1)sc1ccccc13 , report its TGI.
34.1 µM

====

Tested on: HOP-92 NSCLC
Test: NCI tumour cell line growth inhibition, 48 h
READOUT_TYPE: TGI

Field: example entries. Status: answers known.
>  <COMPOUND>
CC(C)N(C(=O)C12C3C4C1(I)C1C2C3(I)C41C(=O)N(C(C)C)C(C)C)C(C)C (stereo not drawn)

>  <OBSERVED_VALUE>
> 100 µM

$$$$
>  <COMPOUND>
N#CC(OC1OC(COC2OC(CO)C(O)C(O)C2O)C(O)C(O)C1O)c1ccccc1 (stereo not drawn)

>  <OBSERVED_VALUE>
> 225 µM

$$$$

Continue with the next compound.
Using the record for NCCSc1nc(-c2ccccc2)c(-c2ccccc2)o1 , report its TGI.
> 100 µM

Reference source: PubChem BioAssay (NCI)
